target: endogenous Gce in Drosophila S2 cells (JHRE-luc) (Drosophila melanogaster); construct: endogenous Gce of S2 cells, transfected D. melanogaster Tai and JHRE-luc reporter; test: JHRE-luc reporter activation in S2 cells; assay type: cell-based; conditions: 8 h, transfected Tai; agonist; racemic compound; read-out: EC50
Sequence (Q9VXW7 271-959 limits assumed): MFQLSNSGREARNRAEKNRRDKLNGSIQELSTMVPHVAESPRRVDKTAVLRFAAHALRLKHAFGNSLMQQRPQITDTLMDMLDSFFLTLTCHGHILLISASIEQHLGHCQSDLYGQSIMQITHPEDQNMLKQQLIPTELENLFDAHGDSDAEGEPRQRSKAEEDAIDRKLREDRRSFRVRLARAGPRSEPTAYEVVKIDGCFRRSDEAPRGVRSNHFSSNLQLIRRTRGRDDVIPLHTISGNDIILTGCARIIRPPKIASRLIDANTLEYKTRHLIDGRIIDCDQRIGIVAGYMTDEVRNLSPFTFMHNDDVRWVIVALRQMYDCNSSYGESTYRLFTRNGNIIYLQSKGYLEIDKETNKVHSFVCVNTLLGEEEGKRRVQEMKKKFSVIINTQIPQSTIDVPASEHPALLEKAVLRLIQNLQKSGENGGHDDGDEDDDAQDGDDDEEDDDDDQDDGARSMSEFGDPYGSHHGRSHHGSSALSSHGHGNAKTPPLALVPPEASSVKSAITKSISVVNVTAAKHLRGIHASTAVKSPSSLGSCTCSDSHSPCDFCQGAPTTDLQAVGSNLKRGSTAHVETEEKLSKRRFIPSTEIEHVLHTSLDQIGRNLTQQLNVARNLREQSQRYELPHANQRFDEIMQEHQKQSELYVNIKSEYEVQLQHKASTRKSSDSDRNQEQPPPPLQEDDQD
Sequence (Q9VLD9 1-2026 partner): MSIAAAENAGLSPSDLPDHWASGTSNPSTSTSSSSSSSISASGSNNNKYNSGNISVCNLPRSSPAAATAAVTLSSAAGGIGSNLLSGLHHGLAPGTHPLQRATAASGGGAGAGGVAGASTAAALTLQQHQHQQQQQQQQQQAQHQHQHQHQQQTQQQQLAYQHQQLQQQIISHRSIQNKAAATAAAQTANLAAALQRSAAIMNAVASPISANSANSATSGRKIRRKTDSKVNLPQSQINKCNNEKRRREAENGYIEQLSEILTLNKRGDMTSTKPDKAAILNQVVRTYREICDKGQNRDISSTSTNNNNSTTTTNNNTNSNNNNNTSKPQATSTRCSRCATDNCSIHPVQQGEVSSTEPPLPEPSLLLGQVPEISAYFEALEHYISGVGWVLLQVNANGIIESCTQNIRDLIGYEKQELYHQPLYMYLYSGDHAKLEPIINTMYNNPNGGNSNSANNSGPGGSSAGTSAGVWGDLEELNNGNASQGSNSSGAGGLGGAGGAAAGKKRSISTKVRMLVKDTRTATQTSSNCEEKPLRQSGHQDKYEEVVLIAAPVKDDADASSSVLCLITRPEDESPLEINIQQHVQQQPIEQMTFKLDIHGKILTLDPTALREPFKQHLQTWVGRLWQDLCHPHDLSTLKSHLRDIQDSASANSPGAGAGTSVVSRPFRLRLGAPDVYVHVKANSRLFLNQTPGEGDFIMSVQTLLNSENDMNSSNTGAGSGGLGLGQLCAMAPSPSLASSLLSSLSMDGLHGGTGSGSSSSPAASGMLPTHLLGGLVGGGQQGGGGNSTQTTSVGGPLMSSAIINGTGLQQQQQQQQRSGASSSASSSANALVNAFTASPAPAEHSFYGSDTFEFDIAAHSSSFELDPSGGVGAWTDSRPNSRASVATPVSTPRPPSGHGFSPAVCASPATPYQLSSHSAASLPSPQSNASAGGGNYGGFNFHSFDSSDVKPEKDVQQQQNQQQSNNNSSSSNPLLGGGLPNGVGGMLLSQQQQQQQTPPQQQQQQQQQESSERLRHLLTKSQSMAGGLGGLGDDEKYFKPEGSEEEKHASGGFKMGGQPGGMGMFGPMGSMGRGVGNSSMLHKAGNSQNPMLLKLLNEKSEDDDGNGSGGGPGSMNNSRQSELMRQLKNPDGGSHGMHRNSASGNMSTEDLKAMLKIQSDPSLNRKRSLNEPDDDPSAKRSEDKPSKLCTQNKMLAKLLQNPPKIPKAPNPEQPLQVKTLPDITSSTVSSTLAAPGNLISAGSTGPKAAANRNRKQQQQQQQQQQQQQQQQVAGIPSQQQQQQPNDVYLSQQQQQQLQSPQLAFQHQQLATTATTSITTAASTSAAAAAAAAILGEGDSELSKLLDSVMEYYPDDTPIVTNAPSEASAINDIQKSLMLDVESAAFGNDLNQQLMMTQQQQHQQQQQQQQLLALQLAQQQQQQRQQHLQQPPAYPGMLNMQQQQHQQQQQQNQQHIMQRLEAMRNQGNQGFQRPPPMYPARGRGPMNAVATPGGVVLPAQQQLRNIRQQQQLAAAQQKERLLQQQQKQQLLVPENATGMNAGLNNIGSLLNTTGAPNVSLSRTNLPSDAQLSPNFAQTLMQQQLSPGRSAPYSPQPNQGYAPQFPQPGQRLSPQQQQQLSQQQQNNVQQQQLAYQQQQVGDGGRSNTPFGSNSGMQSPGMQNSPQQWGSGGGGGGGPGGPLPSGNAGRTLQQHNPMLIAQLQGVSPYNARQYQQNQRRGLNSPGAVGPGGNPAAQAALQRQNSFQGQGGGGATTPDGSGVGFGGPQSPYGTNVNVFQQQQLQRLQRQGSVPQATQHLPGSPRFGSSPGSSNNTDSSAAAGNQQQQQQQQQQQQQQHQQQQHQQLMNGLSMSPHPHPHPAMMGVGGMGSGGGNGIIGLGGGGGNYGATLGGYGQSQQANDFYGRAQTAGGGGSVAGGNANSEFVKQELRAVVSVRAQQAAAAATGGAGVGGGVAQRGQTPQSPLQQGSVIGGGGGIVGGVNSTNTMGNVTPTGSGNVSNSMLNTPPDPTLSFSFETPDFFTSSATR
readout: pEC50
In plain terms, pEC50 is the concentration in mol/L turned into minus its base-10 logarithm.

Problem: Look up and state reported pEC50 for COC(=O)/C=C(\C)CC/C=C(\C)CCC1OC1(C)C (stereo not shown)
Solution: 6.68

---

molecular target: Gce (germ cell-expressed), Myc-tagged, in vitro translated (Drosophila melanogaster, UniProt Q9VXW7); assay: competition against R,S-[3H]JH III, glass fiber filter; type: binding; settings: read-out: Affinity of ligand binding to Gce (Ki)^a
Sequence (Q9VXW7 271-959): as the sequence (Q9VXW7 271-959 limits assumed) above
pKi: −log10 of the molar value.
Response key: true means pKi >= 6; false means pKi < 6.

# count of solved cases: 5
CC/C(=C/CC/C(C)=C\C(=O)OC)CC[C@H]1O[C@@]1(C)CC [S-(Z,Z)-JH I] ... false
CC/C(=C/CC/C(C)=C/C(=O)OC)CC[C@H]1O[C@@]1(C)CC [S-(E,Z)-JH I] ... true
CC/C(=C\CC/C(C)=C\C(=O)OC)CC[C@H]1O[C@@]1(C)CC [S-(Z,E)-JH I] ... true
CC/C(=C/CC/C(C)=C/C(=O)OC)CC[C@H]1O[C@]1(C)CC [R-(E,Z)-JH I] ... true
CC/C(=C/CC/C(C)=C\C(=O)OC)CC[C@H]1O[C@]1(C)CC [R-(Z,Z)-JH I] ... false

Problem: Hi team, for CC/C(=C\CC/C(C)=C\C(=O)OC)CC[C@H]1O[C@]1(C)CC [R-(Z,E)-JH I] , is the recorded pKi at or above 6?
Solution: false

---

molecular target: Gce (germ cell-expressed), Myc-tagged, in vitro translated (Drosophila melanogaster); experiment: competition against R,S-[3H]JH III, glass fiber filter; type: binding; conditions: read-out: Ki
Reported log10 Ki values follow for various molecules
A difference of one corresponds to tenfold Ki; all values are log10 with Ki in µM.

The cases that follow already have their log10 Ki on record.
COC(=O)/C=C(\C)CCC1OC1(C)CCC1OC1(C)C (stereo not drawn) [JHB3] ... -1.08
CC/C(C)=C/CC/C(=C/CC/C(C)=C/C(=O)OC)CC [deoxy-JH I] ... -0.84
CC/C(=C\CC/C(C)=C/C(=O)OC)CC[C@H]1O[C@@]1(C)CC [S-(E,E)-JH I] ... -1.86
CCOC(=O)NCCOc1ccc(CC2CCCCC2O)cc1 (stereo not drawn) [W330] ... -1.76
COC(=O)/C=C(\C)CC/C=C(\C)CC[C@H]1OC1(C)C [R-JH III] ... -2.32
COC(=O)/C=C(\C)CC/C=C(\C)CCC=C(C)C [MF] ... -1.05

Problem: Look up Gce (germ cell-expressed), Myc-tagged, in vitro translated (Drosophila melanogaster) data: log10 Ki of COC(=O)/C=C(\C)CC/C=C(\C)CCC1OC1(C)C (stereo not drawn) [R,S-JH III] , then report it.
Solution: -1.96

Problem: Under Gce (germ cell-expressed), Myc-tagged, in vitro translated (Drosophila melanogaster), report log10 Ki for COC(=O)/C=C(\C)CC/C=C(\C)CC[C@@H]1OC1(C)C [S-JH III]
Solution: -1.42

Problem: State log10 Ki on Gce (germ cell-expressed), Myc-tagged, in vitro translated (Drosophila melanogaster). Entry: CCOC(=O)NCCOc1ccc(Oc2ccccc2)cc1 [fenoxycarb]
Solution: -2.55
